Test system: MES SA DX
assay-notes: Cytotoxicity assay (72 hour killing assay, CellTiter-Glo), MES SA DX
Format: cell-based, human
test-settings: Homo sapiens, MES-SA, 72 h, read-out: Cancer cell lines IC50 (nM) MES SA DX
Method: Cells were cultured in a T75 flask to ˜50-80% confluency and harvested with trypsin into a single cell suspension. Five hundred (500) cells per well were seeded in tissue culture plates in 50 μL/well culture media and incubated at 37° C. for 18-24 h. Compounds were diluted as 400× final desired concentrations in DMSO. […] CellTiter-Glo allows for relative enumeration of metabolically active cells by quantifying intracellular ATP concentrations. […]
Reported IC50 values for a set of molecules
Reply with just the number (in nM).

{"molecule": "COC(=O)C[C@@H]1C[C@@]2(CO2)[C@H](O)[C@@H](/C=C/C(C)=C/C[C@@H]2O[C@H](C)[C@H](NC(=O)/C=C\\[C@H](C)OC(C)=O)C[C@@H]2C)O1 [Compound 2, Thailanstatin A methyl ester]", "experimental-result": 3.6}
{"molecule": "CC(=O)O[C@@H](C)/C=C\\C(=O)N[C@@H]1C[C@H](C)[C@H](C/C=C(C)/C=C/[C@H]2O[C@H](CC(=O)NC3CC3)C[C@@]3(CO3)[C@@H]2O)O[C@@H]1C [Compound 31]", "experimental-result": 105}

From here, focus on the item given below.
Incoming: Request body: readout IC50, system MES SA DX, query COC(=O)C[C@@H]1C[C@@]2(CO2)[C@H](O)[C@@H](/C=C/C(C)=C/C[C@@H]2O[C@H](C)[C@H](NC(=O)/C=C\[C@H](C)OC(=O)N(C)C)C[C@@H]2C)O1 [Compound 36] . Return the value.
Outgoing: 1.09
